Source listed as the supplement of paper PMC10065799.

- test.target: c-Src SH2
- measurement.notes: SH2 binding enrichment of the phosphorylated peptide, bacterial display (enrichment ratio); higher = better substrate or ligand; peptides without Tyr show the background
quantity: SH2 binding enrichment

Use the examples below as a reference point.
                                 seq  measured
0   DFCDLYGGEKF [PTPN11_Y66_Y63C_YF]     0.706
1            DKANRYFSPNF [PTEN_Y336]     0.587
2      KYLENYLNCLL [PLD2_Y169_R172C]     0.747
3  LSSNLYFRWLT [CNGA3_Y168_P163L_YF]     0.531

P. FETDFYRKGGK [INSR_Y1190_YF]
Q. FRSSLYSLMET [MYO5C_Y633_L634S]
R. PKSWNYELPAT [PROM1_Y34_A31S]
Input: In this exercise, place the 3 sequences in ascending sequence of their recorded SH2 binding enrichment. # list labels per requested ordering
Output: P, R, Q
(P: 0.502, R: 0.772, Q: 1.24)

* * *

- test.target: c-Src SH2
- measurement.notes: SH2 binding enrichment of the phosphorylated peptide, bacterial display (enrichment ratio); higher = better substrate or ligand; peptides without Tyr show the background
quantity: SH2 binding enrichment

Use the examples below as a reference point.
                                 seq  measured
0        AGADGYGFLAP [FOXL2_Y186_YF]     0.456
1       SAPPSHEETVA [LITAF_Y23_Y23H]       0.4
2    FSPPFYHRNCM [HGD_Y334_R330S_YF]     0.633
3   VKANTYENFWP [GATM_Y100_K102N_YF]      2.84
4      QGRQTYLLQPA [DDR2_Y813_P815L]     0.618
5     TLQSMSGCDVG [HLA-B_Y123_Y123S]     0.491
6      CTTIHYNYKCN [TP53_Y234_M237K]      1.67
7  TSNQEYLFLSM [FGFR1_Y766_D768Y_YF]     0.358
8      QNTGDDYDLYG [PTPN11_Y62_Y62D]      0.58
9      SVTCTYSPAPN [TP53_Y126_L130P]     0.425

P. SILAVYSKDIY [PANK2_Y400_N404I]
Q. ATRDVYNPFET [SCAMP3_Y41_L38R]
R. EKPAKYDDIKK [GAPDH_Y255]
S. SLFNGYVYSGM [NEIL3_Y71_V76M]
Input: In this exercise, place the 4 sequences in ascending sequence of their recorded SH2 binding enrichment. # list labels per requested ordering
Output: Q, P, R, S
(Q: 0.427, P: 0.726, R: 1.34, S: 2.6)

I. YPSLPYSPVSS [CAMKK2_Y128_C123Y]
II. SVTCAYSPALN [TP53_Y126_T125A]
III. KPGLKYVTFGN [GALNTL5_Y404_YF]
Input: In this exercise, place the 3 sequences in ascending sequence of their recorded SH2 binding enrichment. # list labels per requested ordering
Output: II, I, III
(II: 0.457, I: 0.668, III: 1.21)

* * *

Overview of reported phosphorylation enrichment across a group of sequences:
- test.target: Fyn (UniProt P06241)
- Sequence (P06241 whole entry, looked up): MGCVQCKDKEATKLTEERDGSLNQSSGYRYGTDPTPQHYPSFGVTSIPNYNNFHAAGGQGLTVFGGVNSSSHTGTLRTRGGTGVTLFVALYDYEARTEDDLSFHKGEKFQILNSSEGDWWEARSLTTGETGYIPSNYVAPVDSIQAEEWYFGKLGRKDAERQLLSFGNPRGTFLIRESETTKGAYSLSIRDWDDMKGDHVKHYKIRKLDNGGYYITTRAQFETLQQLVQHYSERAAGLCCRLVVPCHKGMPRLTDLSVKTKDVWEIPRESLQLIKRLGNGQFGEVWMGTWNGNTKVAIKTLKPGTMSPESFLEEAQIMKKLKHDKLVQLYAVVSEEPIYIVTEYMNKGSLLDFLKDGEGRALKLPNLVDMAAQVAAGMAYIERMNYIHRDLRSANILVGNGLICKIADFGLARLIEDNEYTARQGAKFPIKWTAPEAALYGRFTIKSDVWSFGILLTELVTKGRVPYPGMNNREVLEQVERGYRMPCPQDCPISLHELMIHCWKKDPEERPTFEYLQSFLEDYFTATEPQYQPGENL
- measurement.notes: phosphorylation enrichment, bacterial display (enrichment ratio); higher = better substrate or ligand; peptides without Tyr show the background
Output spec: single numeric token, no unit.

Use the examples below as a reference point.
>>> df
                          seq  measured
0  RAADFYSQQMA [GBP6_Y334_YF]     0.427
1     HEEDNYIELIP [NWD2_Y566]     0.905
2     LEDEVYAQKMK [TPM2_Y261]      2.37
3     HSYNSYTYPRL [PAK5_Y316]     0.449
4     EAVSIYQFHGQ [CBLC_Y402]      5.93

Input: Give its phosphorylation enrichment value. Item: SILAVYSKDIY [PANK2_Y400_N404I]
Output: 2.43

Input: Give its phosphorylation enrichment value. Item: PQEVMYAQLDH [KIR3DL2_Y398_T397M]
Output: 6.26

* * *

- test.target: Hck (UniProt P08631)
- Sequence (P08631 whole entry, looked up): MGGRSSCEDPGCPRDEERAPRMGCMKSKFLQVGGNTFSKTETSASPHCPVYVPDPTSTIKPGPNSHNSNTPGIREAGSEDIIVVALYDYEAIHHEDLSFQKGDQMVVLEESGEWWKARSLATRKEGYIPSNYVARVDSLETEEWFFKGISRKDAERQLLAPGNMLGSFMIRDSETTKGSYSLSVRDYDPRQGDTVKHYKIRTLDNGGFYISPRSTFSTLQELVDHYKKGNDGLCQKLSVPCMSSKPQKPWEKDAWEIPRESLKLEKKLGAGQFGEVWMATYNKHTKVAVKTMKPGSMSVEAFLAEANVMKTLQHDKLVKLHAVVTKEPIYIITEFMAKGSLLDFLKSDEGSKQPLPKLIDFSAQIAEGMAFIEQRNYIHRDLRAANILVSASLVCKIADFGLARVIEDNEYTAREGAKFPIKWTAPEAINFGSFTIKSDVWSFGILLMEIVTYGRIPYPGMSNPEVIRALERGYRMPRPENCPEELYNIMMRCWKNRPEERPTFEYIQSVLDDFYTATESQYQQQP
- measurement.notes: phosphorylation enrichment, bacterial display (enrichment ratio); higher = better substrate or ligand; peptides without Tyr show the background
Overview of reported phosphorylation enrichment across a group of sequences:
Output spec: single numeric token, no unit.

                             seq  measured
0    IGEGTYGQVFK [CDK13_Y716_YF]      8.97
1   GGGCGYNRSSG [FUS_Y232_G230C]      0.42
2        TEQMAYCPIQC [SHC4_Y403]     0.949
3  PTKNDYWAMPA [WWOX_Y287_L291P]      1.82
4   HFEDGYPGGSD [CTNND1_Y221_YF]     0.756

Input: Item: TPIFPYLLPKS [PLD2_Y580_T577I_YF] Test system: Hck (UniProt P08631) Read-out: phosphorylation enrichment Value: ?
Output: 0.64

Input: Item: ALAHKYDGGGG [HBB_Y146_H147D] Test system: Hck (UniProt P08631) Read-out: phosphorylation enrichment Value: ?
Output: 0.473

* * *

- test.target: FGFR1 (UniProt P11362)
- Sequence (P11362 whole entry, looked up): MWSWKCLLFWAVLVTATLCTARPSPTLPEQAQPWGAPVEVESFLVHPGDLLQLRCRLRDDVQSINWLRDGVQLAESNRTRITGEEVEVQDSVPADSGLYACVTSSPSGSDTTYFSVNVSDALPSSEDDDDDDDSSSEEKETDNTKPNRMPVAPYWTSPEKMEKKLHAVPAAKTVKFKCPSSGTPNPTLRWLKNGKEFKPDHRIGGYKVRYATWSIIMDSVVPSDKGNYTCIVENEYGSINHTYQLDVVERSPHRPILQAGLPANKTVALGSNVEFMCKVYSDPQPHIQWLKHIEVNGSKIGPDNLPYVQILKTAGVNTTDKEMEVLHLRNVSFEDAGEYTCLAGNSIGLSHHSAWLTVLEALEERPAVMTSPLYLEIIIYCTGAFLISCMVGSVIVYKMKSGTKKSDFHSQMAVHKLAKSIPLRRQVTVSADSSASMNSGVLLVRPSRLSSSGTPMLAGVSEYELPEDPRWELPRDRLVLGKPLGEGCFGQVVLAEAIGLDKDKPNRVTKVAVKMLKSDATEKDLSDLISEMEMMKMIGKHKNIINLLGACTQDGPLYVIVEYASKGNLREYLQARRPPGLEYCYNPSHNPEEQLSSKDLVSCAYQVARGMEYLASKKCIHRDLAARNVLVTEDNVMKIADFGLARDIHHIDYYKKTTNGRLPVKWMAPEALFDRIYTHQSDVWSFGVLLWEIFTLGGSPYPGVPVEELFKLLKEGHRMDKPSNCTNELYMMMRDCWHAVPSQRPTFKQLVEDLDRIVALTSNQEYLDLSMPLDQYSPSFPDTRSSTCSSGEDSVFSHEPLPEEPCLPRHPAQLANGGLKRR
- measurement.notes: phosphorylation enrichment, bacterial display (enrichment ratio); higher = better substrate or ligand; peptides without Tyr show the background
quantity: phosphorylation enrichment
Output spec: single numeric token, no unit.

                                seq  measured
0    KLSFSYGWALQ [ALDOB_Y302_R304W]     0.676
1         EVDELYREAPI [MYL12B_Y143]      0.86
2          AAALAYGLDKS [HSPA9_Y230]     0.455
3  GGYNNYGYGSD [HNRNPH3_Y159_N163S]     0.406
4          ITVPAYFNDSQ [HSPA9_Y196]     0.581

Input: Give its phosphorylation enrichment value. Item: HSYNSYTYPRL [PAK5_Y316]
Output: 0.658

Input: Give its phosphorylation enrichment value. Item: AGTIPYHAHLD [ASS1_Y291_L290P]
Output: 0.458

Input: Give its phosphorylation enrichment value. Item: EKGEEYGGGGG [TUBA1A_Y451_E447K]
Output: 0.578

Input: Give its phosphorylation enrichment value. Item: TDDMRYPMKSE [TGDS_Y302_N298D]
Output: 0.529

Input: Give its phosphorylation enrichment value. Item: ADKAAYLQNLN [MYH1_Y389]
Output: 0.458

* * *

- test.target: c-Src SH2
- measurement.notes: SH2 binding enrichment of the phosphorylated peptide, bacterial display (enrichment ratio); higher = better substrate or ligand; peptides without Tyr show the background
quantity: SH2 binding enrichment

>>> print(df.to_string())
                             seq  measured
0       VATRWYRSPEL [CDKL5_Y177]     0.523
1   HLPAGYIIPLQ [GAA_Y822_R819P]     0.987
2  KPGLIYNKVNP [SPRED3_Y72_V71I]     0.895

1. ECKETYHEGEC [PRKN_Y372_A371T]
2. ITNVLYHVVGW [GBA_Y412_L410V]
3. YNNYGYGNDGF [HNRNPH3_Y161]
4. AKRKGYDMRVD [NEB_Y2770]
Input: Task field, ranking: reported SH2 binding enrichment, descending order. # list labels per requested ordering
Output: 3, 2, 1, 4

* * *

- test.target: SHP2-C SH2
- measurement.notes: SH2 binding enrichment of the phosphorylated peptide, bacterial display (enrichment ratio); higher = better substrate or ligand; peptides without Tyr show the background
quantity: SH2 binding enrichment

In [3]: df
Out[3]:
                              seq  measured
0  KRLAVYIDEEA [EPM2A_Y304_P301L]     0.486

1. SDQRRYSLIDR [CLIP2_Y972]
2. NNIDFYKKTTN [FGFR2_Y657_YF]
Input: For the two items 1 and 2 , which reports the higher SH2 binding enrichment value? // output: label of the selected item
Output: 1

* * *

- test.target: c-Src SH2
- measurement.notes: SH2 binding enrichment of the phosphorylated peptide, bacterial display (enrichment ratio); higher = better substrate or ligand; peptides without Tyr show the background
quantity: SH2 binding enrichment

Use the examples below as a reference point.
In [3]: df
Out[3]:
                                seq                quantity  measured
0           SLESAYPEGSQ [TTF1_Y357]  SH2 binding enrichment     0.522
1  TINPIHEHVGF [CHN1_Y143_Y143H_YF]  SH2 binding enrichment     0.519
2   PQAVRYIFTID [DCX_Y103_G100A_YF]  SH2 binding enrichment      1.54
3       CGQDPCIRELG [UROS_Y19_Y19C]  SH2 binding enrichment     0.762

a. RREWFYEVIIV [BACE1_Y260_YF]
b. CTTIHHNYMCN [TP53_Y234_Y234H]
Input: For the two items a and b , which reports the higher SH2 binding enrichment value? // output: label of the selected item
Output: b

I. AAGGRYDGLVG [HARS1_Y363]
II. LKVQVYILGRE [ASS1_Y359_G356V]
Input: Given the listed items, does I or II have the lesser reported SH2 binding enrichment? // output: label of the selected item
Output: I
(I: 0.505, II: 0.804)
